TESTED_TARGET: PDGFRb (Homo sapiens, UniProt P09619)
Construct: The kinase domain of PDGFRβ was assayed in 50 mM Hepes; purchased Invitrogen P3082
Sequence (P09619 600-962 limits assumed): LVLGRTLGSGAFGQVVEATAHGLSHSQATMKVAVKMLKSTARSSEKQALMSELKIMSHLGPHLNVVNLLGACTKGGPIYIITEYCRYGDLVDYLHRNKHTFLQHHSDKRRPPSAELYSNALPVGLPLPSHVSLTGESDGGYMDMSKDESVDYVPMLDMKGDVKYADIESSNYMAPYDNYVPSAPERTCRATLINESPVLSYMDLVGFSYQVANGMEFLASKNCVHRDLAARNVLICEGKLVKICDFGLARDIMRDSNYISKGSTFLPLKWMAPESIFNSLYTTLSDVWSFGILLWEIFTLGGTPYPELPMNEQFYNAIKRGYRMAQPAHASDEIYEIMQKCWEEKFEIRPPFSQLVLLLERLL
ASSAY_METHOD_TEXT: PDGFRb kinase in vitro biochemical assay (alphascreen)
TEST_SETTINGS: tested at about 1 μM; read-out: PDGF RK BETA percent inhibition
Returns Satisfied if the recorded inhibition at 1 µM is greater than or equal to 9%, and Not satisfied otherwise.

- COMPOUND: "CCCn1cc(-c2cncc(Oc3ccc4nc(N[C@@H]5CCCC[C@H]5O)sc4c3)c2)cn1 [Compound 58]"
  CAT: "Not satisfied"
- COMPOUND: "Cn1cncc1-c1cncc(Oc2ccc3nc(N[C@@H]4CCCC[C@H]4O)sc3c2)c1 [Compound 68]"
  CAT: "Satisfied"
- COMPOUND: "CN1CCN(c2ccc(-c3cncc(Oc4ccc5nc(N[C@@H]6CCCC[C@H]6O)sc5c4)c3)cn2)CC1 [Compound 62]"
  CAT: "Satisfied"
- COMPOUND: "O[C@@H]1CCCC[C@H]1Nc1nc2ccc(Oc3cncc(-c4cccnc4)c3)cc2s1 [Compound 57]"
  CAT: "Not satisfied"
- COMPOUND: "C[C@H](Nc1nc2ccc(Oc3ccc(N)nc3)cc2s1)C1CCCCC1 [Compound 100]"
  CAT: "Satisfied"
- COMPOUND: "CN(C)c1ncc(-c2cncc(Oc3ccc4nc(N[C@@H]5CCCC[C@H]5O)sc4c3)c2)cn1 [Compound 76]"
  CAT: "Not satisfied"
- COMPOUND: "COc1cc2ncnc(Oc3ccc4nc(N[C@@H]5CCCC[C@H]5O)sc4c3)c2cc1OC [Compound 19]"
  CAT: "Satisfied"
